# study_target: HLA-A*02:01
# assay_remarks: IEDB peptide-MHC binding, purified MHC/competitive/radioactivity; filed as Kd, often an IC50 or EC50 that approximates it; bounds were set here for any values at or beyond the usual limits of such assays
# details: source organism: Dengue virus 2 Jamaica/1409/1983
Lab note: cut-off is 10 nM. Strictly less in Kd is yes. Exactly 10 nM or more is no.

Ask | Is it true that Kd reported for MMATIGIALL is less than 10 nM?
Reply | yes

Ask | Is it true that Kd reported for TLYAVATTFV is less than 10 nM?
Reply | no

Ask | Is it true that Kd reported for KVLNPYMPSV is less than 10 nM?
Reply | yes

Ask | Is it true that Kd reported for ILLVAVSFV is less than 10 nM?
Reply | no

Ask | Is it true that Kd reported for FLEEMLRTRV is less than 10 nM?
Reply | no

Ask | Is it true that Kd reported for IMAAILAYT is less than 10 nM?
Reply | no
